- Test system: PC-3
- assay_overview: Cytotoxicity against human PC3 cells after 5 days by SRB assay
- Type: functional, cell-based
- measurement_conditions: PC-3, 120 h
measure_name: pIC50
Answers are plain numbers, as −log10 of the molar value.

Hey, can you go through the list below and give me pIC50 for every item?
1. O=C(CCCCCCCCCc1ccccc1)N[C@H]1CCOC1=O
2. O=C(CCCCCCc1ccccc1)CC(=O)N[C@H]1CCOC1=O
3. CCCCCCCCCC(=O)CC(=O)N[C@H]1CCOC1=O

### Response
4.12
5.05
5.30

Hey, can you go through the list below and give me pIC50 for every item?
1. O=C(CCCCCCCCc1ccccc1)N[C@H]1CCOC1=O
2. O=C(CCCCCCCCc1ccccc1)CC(=O)N[C@H]1CCOC1=O
3. O=C(CCCCc1ccccc1)CC(=O)N[C@H]1CCOC1=O

### Response
4.17
5.40
4.08

Every entry's value here was drawn from ChEMBL document CHEMBL1152810.
